- target_of_assay: HLA-A*01:01 presenting KRAS-Q61H 55-64 (…) (human)
- run_description: cell-based or functional assay
recorded_metric: minimal recognized peptide concentration (functional avidity, IFNγ ELISPOT)

Worked set:
binder	recorded_result
TCRCD8-EL8-LM7 #8 (TCR) TCR alpha: AQKITQTQPGMFVQEKEAVTLDCTYDTSDPSYGLFWYKQPSSGEMIFLIYQGSYDQQNATEGRYSLNFQKARKSANLVISASQLGDSAMYFCAMREIRDSSYKLIFGSGTRLLVRPDIQNPDPAVYQLRDS TCR beta: MGTRLLCCVAFCLLGAGPVDSGVTQTPKHLITATGQRVTLRCSPRSGDLSVYWYQQSLDQGLQFLIQHYNGEERAKGNILERFSAQQFPDLHSELNLSSLELGDSALYFCASSPAGPNTEAFFGQGTRLTVVEDLNKVFPPEVAVFE	100 nM
TCRCD8-EL8-LM7 #4 (TCR) TCR alpha: AQKVTQAQTEISVVEKEDVTLDCVYETRDTTYYLFWYKQPPSGELVFLIRRNSFDEQNEISGRYSWNFQKSTSSFNFTITASQVVDSAVYFCALSNAGGTSYGKLTFGQGTILTVHPNIQNPDPAVYQLRDS TCR beta: EAQVTQNPRYLITVTGKKLTVTCSQNMNHEYMSWYRQDPGLGLRQIYYSMNVEVTDKGDVPEGYKVSRKEKRNFPLILESPSPNQTSLYFCASSRRLPPPYGYTFGSGTRLTVVEDLNKVFPPEVAVFE	10 nM
TCRCD8-EL8-LM7 #1 (TCR) TCR alpha: AQKITQTQPGMFVQEKEAVTLDCTYDTSDPSYGLFWYKQPSSGEMIFLIYQGSYDQQNATEGRYSLNFQKARKSANLVISASQLGDSAMYFCAMREGQDSSYKLIFGSGTRLLVRPDIQNPDPAVYQLRDS TCR beta: MGTRLLCCVAFCLLGAGPVDSGVTQTPKHLITATGQRVTLRCSPRSGDLSVYWYQQSLDQGLQFLIQYYNGEERAKGNILERFSAQQFPDLHSELNLSSLELGDSALYFCASSVLGPNTEAFFGQGTRLTVVEDLNKVFPPEVAVFE	10 nM

Continue with the next binder.
What value of measured minimal recognized peptide concentration (functional avidity, IFNγ ELISPOT) is listed for TCRCD8-EL8-LM7 #7 (TCR) TCR alpha: AQKVTQAQTEISVVEKEDVTLDCVYETRDTTYYLFWYKQPPSGELVFLIRRNSFDEQNEISGRYSWNFQKSTSSFNFTITASQVVDSAVYFCALSESSNTGKLIFGQGTTLQVKPDIQNPDPAVYQLRDS TCR beta: EAQVTQNPRYLITVTGKKLTVTCSQNMNHEYMSWYRQDPGLGLRQIYYSMNVEVTDKGDVPEGYKVSRKEKRNFPLILESPSPNQTSLYFCASSRREPPPYGYTFGSGTRLTVVEDLNKVFPPEVAVFE ?
10 nM

Every entry's value here was drawn from patent US20230405046A1.
